Hello, the source for this data is patent US11628144B2, in case you need it.

- Measurement Protocol: Solubility of iniparib in purified water
- Format: physicochemical
Endpoint: solubility

q: Consider the molecule NC(=O)c1ccc(I)c([N+](=O)[O-])c1 [Iniparib, 4-iodo-3-nitrobenzamide] and give its measured solubility.
a: ~182 µg/mL
